system: NCI-H460 lung; experiment: NCI-60 one-dose screen, 48 h (100 = growth as untreated, 0 = no growth, -100 = all killed); settings: 10 µM unless noted
The panel holds about 83,000 compounds, 20% with a hit somewhere; the sample as a whole holds those more often.
Param threshold (90%) applies to growth; output YES when value >= threshold, NO when value < threshold.

Answered examples (5):
INSERT INTO results (structure_smiles_string, answer_label) VALUES
  ('Nc1c(C(=O)Nc2cccc3ncccc23)sc2nc3c(cc12)CN(Cc1ccccc1)CC3', 'NO'),
  ('NC(=O)c1ccccc1OCC(=O)Nc1ccc(Cl)c(Cl)c1', 'YES'),
  ('C=C1C(=O)O[C@H]2[C@H]1CC/C(COC(=O)/C=C\C(=O)NCc1ccc(Cn3c(=O)sn(CCCCl)c3=O)cc1)=C\CC[C@@]1(C)O[C@@H]21', 'YES'),
  ('CCN(CC)CCOc1ccc2ccc(=O)oc2c1', 'YES'),
  ('N#Cc1c(-c2ccccc2)nc2c(c(-c3ccccc3)nn2-c2ccccc2)c1-c1ccc(N2CCCCC2)cc1', 'YES');

Hello, I need to know if `CCOC(=O)c1c(C)nc2ccccc2c1/C=C/c1ccc(F)cc1` has measured growth not below 90%. Thanks! NO

Hi, just wondering whether `CS(=O)(=O)c1ccc(-c2nc3ccccc3n2CC(=O)N/N=C/c2ccccc2)cc1` shows growth of 90% or higher. YES

Quick check: does `COc1cc(-c2ccc(-c3ccc(C(=N)N)cc3)s2)cc(OC)c1OC` have growth greater than or equal to 90%? NO

Hello, I need to know if `NCCCNc1nc2ccccc2c2c(=O)c3cc(Cl)ccc3sc12` has measured growth not below 90%. Thanks! NO

Dear colleague, could you confirm whether `Nc1cc(C(=O)O)cc(-n2c(O)c(C=C3N=c4ccccc4=N3)sc2=S)c1` has growth at or above 90%? YES
